Entries annotated with measured Neutralization B-1 IC50
molecular target: protein F of hRSV strain B-1 (on RSV B-1-infected Hep2 cells and on virus) (human respiratory syncytial virus, …, UniProt P13843 26-574); assay: cell-based or functional assay
RECORDED ENDPOINT: Neutralization B-1 IC50

[[record]]
binder = "Nanobody 13A1 (VHH, also called PMP13A1; PRSV13A1) VHH: EVQLVESGGGLVQPGGSLRLSCAASGLTLDYYALGWFRQAPGKEREGVSCISSADHSTTYADSVKGRFTISWDNAKNTVYLQMNSLKPEDTAVYYCAADPALGCYSGNYYPRYDYWGQGTQVTVSS"
recorded_endpoint = "Neutralization B-1 IC50"
value_observed = "6.16 µM"

[[record]]
binder = "Nanobody 20C1 (VHH, also called PMP20C1; PRSV20C1) VHH: EVQLVESGGGLVQAGGSLRLSCAASGRTFSSFAMGWFRQAPGKEREFVAAISWSGGSTYYADSVKGRFTISGDNAKNTMYLQMNSLKPEDTAVYYCAADSEILNSGAYYYPWAYVYWGQGTQVTVSS"
recorded_endpoint = "Neutralization B-1 IC50"
value_observed = "> 10 µM"

[[record]]
binder = "Nanobody 1E4 (VHH, also called PMP1E4; PRSV1E4) VHH: EVQLVESGGGLVQAGGSLRLSCEASGRTFSSYGMGWFRQAPGKEREFVAAVSRLSGPRTVYADSVKGRFTISRDNAENTVYLQMNSLKPEDTAVYTCAAELTNRNPGAYYYTWAYDYWGQGTQVTVSS"
recorded_endpoint = "Neutralization B-1 IC50"
value_observed = "> 10 µM"

[[record]]
binder = "Nanobody 13E12 (VHH, also called PMP13E12; PRSV13E12) VHH: EVQLVESGGGLVQAGGSLRLSCAASGRTFSRYIMGWFRQAPGKEREFVGAISRSGDITSFADFVKGRFTMSRDNAKNTLYLQMNSLEPEDTAVYSCAANSDTYYIYSDIVVPERYDYWGQGTQVTVSS"
recorded_endpoint = "Neutralization B-1 IC50"
value_observed = "12.3 µM"

